CONDITION DETAILS: 318.15 K; 101.33 kPa; Liquid; Concentric cylinders viscometry
Please mark met if the recorded viscosity is equal to or greater than 40 mPa·s, and not met if it falls below.

CCCCn1cc[n+](C)c1C.O=S(=O)([N-]S(=O)(=O)C(F)(F)F)C(F)(F)F = met
CCCCCCOS(=O)(=O)[O-].CC[n+]1ccn(C)c1 [3-ethyl-1-methyl-1H-imidazolium hexyl sulfate] = met
CCCC[N+]1(C)CCCC1.FC(F)(F)C(F)(F)[P-](F)(F)(F)(C(F)(F)C(F)(F)F)C(F)(F)C(F)(F)F = met
CCOS(=O)(=O)[O-].CCn1cc[n+](C)c1 [1-ethyl-3-methylimidazolium ethyl sulfate] = met
CCCCCCCCCCCCCC[P+](CCCCCC)(CCCCCC)CCCCCC.FC(F)(F)C(F)(F)[P-](F)(F)(F)(C(F)(F)C(F)(F)F)C(F)(F)C(F)(F)F = met
CCCC[N+]1(C)CCCC1.O=S(=O)([N-]S(=O)(=O)C(F)(F)F)C(F)(F)F = not met
CCCC[N+]1(C)CCCC1.O=S(=O)([O-])C(F)(F)F [1-butyl-1-methylpyrrolidinium trifluoromethanesulfonate] = met
COCC[N+]1(C)CCCC1.O=S(=O)([N-]S(=O)(=O)C(F)(F)F)C(F)(F)F = not met
